molecular target: glutathione-S-transferase (GST) tagged LXRbeta LBD (ligand binding domain) (Homo sapiens, UniProt P55055); construct: purchased Invitrogen pv4658; test: LanthaScreen TR-FRET Liver X Receptor Coactivator Assay, LXR beta; type: biochemical; settings: efficacy (% Emax) in relation to reference dual agonist T0901317
measurement-name: LXR beta actiivty at max dose (%)

[[record]]
molecule = "CC(CCCOc1ccc(C(=O)N(C)C)c(Cl)c1)C1CCN(C(=O)C(O)(c2ccccc2)C(F)(F)F)CC1 (single isomer, unassigned) [Example 26-4]"
observed_measurement = 114

[[record]]
molecule = "COc1cccc(C(O)(C(=O)N2CCC3(CCC(Oc4ccc(C(=O)N(C)C)c(Cl)n4)CC3)CC2)C(F)(F)F)c1 (single isomer, unassigned) [Example 1-2]"
observed_measurement = 120

[[record]]
molecule = "COc1cccc(C(O)(C(=O)N2CCC3(CCC(Oc4ccc(C(=O)N(C)C)c(Cl)n4)CC3)CC2)C(F)(F)F)c1 (single isomer, unassigned) [Example 1-3]"
observed_measurement = 84

[[record]]
molecule = "CN(C)C(=O)c1ccc(OCCCCC2CCN(C(=O)C(O)(c3ccccc3)C(F)(F)F)CC2)nc1Cl (single isomer, unassigned)"
observed_measurement = 74

[[record]]
molecule = "CC(C)C(O)(C(=O)N1CCC(C2CC2COc2ccc(C(=O)N(C)C)c(Cl)c2)CC1)C(F)(F)F (single isomer, unassigned)"
observed_measurement = 73

[[record]]
molecule = "CC(CCCOc1ccc(C(=O)N(C)C)c(Cl)c1)C1CCN(C(=O)C(O)(c2ccccc2)C(F)(F)F)CC1 (single isomer, unassigned) [Example 26-3]"
observed_measurement = 77

[[record]]
molecule = "CC(CCCOc1ccc(C(=O)N(C)C)c(Cl)c1)C1CCN(C(=O)C(O)(c2ccccc2)C(F)(F)F)CC1 (single isomer, unassigned) [Example 26-2]"
observed_measurement = 71


----------
Emax values by entry
Target: glutathione-S-transferase (GST) tagged LXRbeta LBD (ligand binding domain) (Homo sapiens, UniProt P55055)
Construct: purchased Invitrogen pv4658
Sequence (P55055 222-460 limits assumed): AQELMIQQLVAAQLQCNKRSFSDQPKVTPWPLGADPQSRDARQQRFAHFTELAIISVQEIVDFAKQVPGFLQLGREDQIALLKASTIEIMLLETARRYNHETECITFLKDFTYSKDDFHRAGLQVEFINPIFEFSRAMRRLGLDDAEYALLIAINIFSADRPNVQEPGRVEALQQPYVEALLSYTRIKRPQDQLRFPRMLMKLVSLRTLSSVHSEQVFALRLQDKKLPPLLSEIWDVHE
Experiment: LanthaScreen TR-FRET Liver X Receptor Coactivator Assay, LXR beta
Assay type: biochemical
Details: read-out: LXR beta actiivty at max dose, efficacy (% Emax) in relation to reference dual agonist T0901317
measurement-name: Emax (%)

[[record]]
molecule = "CN(C)C(=O)c1ccc(O[C@H]2C[C@@H](CC3CCN(C(=O)[C@](O)(c4cccc(OC5CC5)c4)C(F)(F)F)CC3)C2)cc1Cl (single isomer, unassigned)"
unit_string = "%"
observed_measurement = 109

[[record]]
molecule = "CN(C)C(=O)c1ccc(OCCCCC2CCN(C(=O)C(O)(c3ccccc3)C(F)(F)F)CC2)nc1Cl (single isomer, unassigned)"
unit_string = "%"
observed_measurement = 83

[[record]]
molecule = "CNC(=O)c1ccc(OCC[C@@H]2C[C@@H]2C2CCN(C(=O)[C@](O)(c3cccc(OC)c3)C(F)(F)F)CC2)cc1Cl (single isomer, unassigned)"
unit_string = "%"
observed_measurement = 75


----------
Target: glutathione-S-transferase (GST) tagged LXRalpha LBD (ligand binding domain) (Homo sapiens)
Construct: purchased Invitrogen pv4655
Experiment: biochemical
Conditions: read-out: LXR alpha actiivty at max dose, efficacy (% Emax) in relation to reference dual agonist T0901317
Description: While running the LanthaScreen™ TR-FRET Liver X Receptor Coactivator Assay, LXR alpha-LBD or LXR beta-LBD was added to ligand test compounds followed by addition of a mixture of a fluorescein-labelled coactivator peptide and terbium-conjugated anti-GST antibody. After an incubation period at room temperature, TR-FRET (time-resolved fluorescence resonance energy transfer) was measured using a filter-based instrument capable of TR-FRET, e.g. PerkinElmer Envision.
The reader will find reported Emax values listed item by item below.
measurement-name: Emax (%)

[[record]]
molecule = "CC(C)(C)OC(=O)NC1CN(C(=O)c2ccc(OCCCCC3CCN(C(=O)[C@](O)(c4ccccc4)C(F)(F)F)CC3)cc2Cl)C1 (single isomer, unassigned)"
measurement_name = "Emax"
unit_string = "%"
observed_measurement = 32

[[record]]
molecule = "Cc1nc(OC2CCC3(CC2)CCN(C(=O)C(O)(c2cccc(OC4CC4)c2)C(F)(F)F)CC3)ccc1C(=O)N(C)C (single isomer, unassigned)"
measurement_name = "Emax"
unit_string = "%"
observed_measurement = 0

[[record]]
molecule = "CN(C)C(=O)c1ccc(OCC[C@@H]2C[C@@H]2C2CCN(C(=O)[C@@](O)(c3ccccc3)C(F)(F)F)CC2)nc1Cl (single isomer, unassigned)"
measurement_name = "Emax"
unit_string = "%"
observed_measurement = 36

[[record]]
molecule = "CN(C)C(=O)c1ccc(O[C@H]2C[C@@H](CC3CCN(C(=O)[C@](O)(c4cccc(C5CC5)c4)C(F)(F)F)CC3)C2)cc1Cl (single isomer, unassigned)"
measurement_name = "Emax"
unit_string = "%"
observed_measurement = 30

[[record]]
molecule = "CN(C(=O)c1ccc(OCCCCC2CCN(C(=O)[C@](O)(c3ccccc3)C(F)(F)F)CC2)cc1Cl)C1COC1 (single isomer, unassigned)"
measurement_name = "Emax"
unit_string = "%"
observed_measurement = 29

[[record]]
molecule = "CN(C)C(=O)c1ccc(OCCCCC2CCN(S(=O)(=O)c3c(Cl)cccc3Cl)CC2)nc1Cl"
measurement_name = "Emax"
unit_string = "%"
observed_measurement = 80


----------
Target: glutathione-S-transferase (GST) tagged LXRalpha LBD (ligand binding domain) (Homo sapiens)
Construct: purchased Invitrogen pv4655
Sequence (Q13133 209-447 limits assumed): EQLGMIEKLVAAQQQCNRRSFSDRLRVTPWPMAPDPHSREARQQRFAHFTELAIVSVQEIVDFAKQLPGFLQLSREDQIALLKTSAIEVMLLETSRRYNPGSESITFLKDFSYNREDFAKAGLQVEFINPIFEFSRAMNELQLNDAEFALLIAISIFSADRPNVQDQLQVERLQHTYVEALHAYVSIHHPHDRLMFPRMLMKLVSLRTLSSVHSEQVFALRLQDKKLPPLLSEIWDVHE
Assay: biochemical
Settings: LXR alpha IP, potency (Inflection Point), compound-induced co-activator recruitment, TR-FRET
measurement-name: EC50 (nM)

[[record]]
compound = "CN(C)C(=O)c1ccc(OCCC2CC23CCN(C(=O)C2(c4cc(F)ccc4F)CCC2)CC3)cc1Cl (single isomer, unassigned)"
measured_target = "glutathione-S-transferase (GST) tagged LXRalpha LBD (ligand binding domain) (Homo sapiens)"
observed_measurement = 447

[[record]]
compound = "O=C(NC1CC1)c1ccc(OCCCCC2CCN(C(=O)[C@](O)(c3ccccc3)C(F)(F)F)CC2)cc1Cl (single isomer, unassigned)"
measured_target = "glutathione-S-transferase (GST) tagged LXRalpha LBD (ligand binding domain) (Homo sapiens)"
observed_measurement = 527

[[record]]
compound = "CN(C)C(=O)c1ccc(OC[C@H]2C[C@@H]2C2CCN(C(=O)C(C)(C)c3ccccc3)CC2)cc1Cl (single isomer, unassigned)"
measured_target = "glutathione-S-transferase (GST) tagged LXRalpha LBD (ligand binding domain) (Homo sapiens)"
observed_measurement = 631


----------
List of pEC50 values.
Target: glutathione-S-transferase (GST) tagged LXRbeta LBD (ligand binding domain) (Homo sapiens, UniProt P55055)
Construct: purchased Invitrogen pv4658
Sequence (P55055 222-460 limits assumed): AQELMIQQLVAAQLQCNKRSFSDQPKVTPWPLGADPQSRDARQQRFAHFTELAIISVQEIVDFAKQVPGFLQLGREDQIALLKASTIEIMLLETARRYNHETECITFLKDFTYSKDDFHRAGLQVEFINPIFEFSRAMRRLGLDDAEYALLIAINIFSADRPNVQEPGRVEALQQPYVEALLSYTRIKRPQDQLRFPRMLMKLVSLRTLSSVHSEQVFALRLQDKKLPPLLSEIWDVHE
Assay: LanthaScreen TR-FRET Liver X Receptor Coactivator Assay, LXR beta
Type: biochemical
Conditions: LXR beta IP, potency (Inflection Point), compound-induced co-activator recruitment, TR-FRET
pEC50: −log10 of the molar value.
measurement-name: pEC50

[[record]]
compound = "CN(C)C(=O)c1ccc(OCC[C@H]2CC23CCN(C(=O)[C@@](N)(c2ccccc2)C(F)(F)F)CC3)cc1Cl (single isomer, unassigned)"
observed_measurement = 6.87

[[record]]
compound = "CN(C)C(=O)c1ccc(OCC[C@H]2C[C@H]2C2CCN(C(=O)[C@](O)(c3ccccc3)C(F)(F)F)CC2)cc1C#N (single isomer, unassigned)"
observed_measurement = 6.97

[[record]]
compound = "COc1cccc(C(O)(C(=O)N2CCC(CCCCOc3ccc(C(=O)N(C)C)c(OC)c3)CC2)C(F)(F)F)c1 (single isomer, unassigned)"
observed_measurement = 7.44

[[record]]
compound = "CC(C)C(O)(C(=O)N1CCC(C2CC2COc2ccc(C(=O)N(C)C)c(Cl)c2)CC1)C(F)(F)F (single isomer, unassigned) [Example 32-1]"
observed_measurement = 6.50

[[record]]
compound = "COc1cccc(C(O)(C(=O)N2CCC(CC(C)CC(C)Oc3ccc(C(=O)N(C)C)c(Cl)c3)CC2)C(F)(F)F)c1 (single isomer, unassigned)"
observed_measurement = 7.00

